# SYSTEM UNDER TEST: Factor X (FX), P00742
# Sequence (P00742 whole entry, looked up): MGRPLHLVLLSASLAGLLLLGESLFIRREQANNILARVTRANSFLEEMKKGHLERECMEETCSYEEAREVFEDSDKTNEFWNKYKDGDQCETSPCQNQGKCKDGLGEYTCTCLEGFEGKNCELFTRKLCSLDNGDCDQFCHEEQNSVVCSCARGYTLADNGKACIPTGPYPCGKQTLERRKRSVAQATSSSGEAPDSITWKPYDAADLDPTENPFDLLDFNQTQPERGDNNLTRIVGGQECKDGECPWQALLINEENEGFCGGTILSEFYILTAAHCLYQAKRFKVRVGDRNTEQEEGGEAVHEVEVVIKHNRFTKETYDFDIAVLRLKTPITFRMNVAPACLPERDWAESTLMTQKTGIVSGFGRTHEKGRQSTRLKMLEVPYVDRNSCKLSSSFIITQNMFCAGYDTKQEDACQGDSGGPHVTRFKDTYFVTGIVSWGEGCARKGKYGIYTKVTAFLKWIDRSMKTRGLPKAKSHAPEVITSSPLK
VALUE KIND: kcat/KM for FX activation (Xase assay with FVIIIa, PC/PS vesicles, Ca2+)

Tell me the measured kcat/KM for FX activation (Xase assay with FVIIIa, PC/PS vesicles, Ca2+) of FIXa-K228N/R338E/R403E (protein) chain 1: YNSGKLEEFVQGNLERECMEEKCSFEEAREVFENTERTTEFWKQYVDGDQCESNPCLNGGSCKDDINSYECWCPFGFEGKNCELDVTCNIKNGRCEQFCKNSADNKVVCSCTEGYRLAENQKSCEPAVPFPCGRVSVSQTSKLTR chain 2: VVGGEDAKPGQFPWQVVLNGKVDAFCGGSIVNEKWIVTAAHCVETGVNITVVAGEHNIEETEHTEQKRNVIRIIPHHNYNAAINKYNHDIALLELDEPLVLNSYVTPICIADKEYTNIFLKFGSGYVSGWGRVFHKGRSALVLQYLRVPLVDRATCLESTKFTIYNNMFCAGFHEGGRDSCQGDSGGPHVTEVEGTSFLTGIISWGEECAMKGKYGIYTKVSEYVNWIKEKTKLT , please.
4.8e+07 M⁻¹ s⁻¹

Tell me the measured kcat/KM for FX activation (Xase assay with FVIIIa, PC/PS vesicles, Ca2+) of FIXa-R318Y/R338E/E410N (protein) chain 1: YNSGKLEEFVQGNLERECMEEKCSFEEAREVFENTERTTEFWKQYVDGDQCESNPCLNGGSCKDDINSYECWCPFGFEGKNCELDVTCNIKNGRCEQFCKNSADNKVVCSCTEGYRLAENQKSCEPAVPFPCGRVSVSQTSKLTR chain 2: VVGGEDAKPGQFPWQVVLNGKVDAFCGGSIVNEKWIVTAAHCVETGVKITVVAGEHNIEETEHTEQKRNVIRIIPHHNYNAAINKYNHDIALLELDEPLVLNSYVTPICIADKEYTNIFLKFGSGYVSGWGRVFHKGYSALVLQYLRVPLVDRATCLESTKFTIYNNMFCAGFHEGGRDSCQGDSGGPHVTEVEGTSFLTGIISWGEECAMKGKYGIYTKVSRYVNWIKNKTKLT , please.
3.4e+08 M⁻¹ s⁻¹

Tell me the measured kcat/KM for FX activation (Xase assay with FVIIIa, PC/PS vesicles, Ca2+) of FIXa-D203N/F205T/R338E/R403E (protein) chain 1: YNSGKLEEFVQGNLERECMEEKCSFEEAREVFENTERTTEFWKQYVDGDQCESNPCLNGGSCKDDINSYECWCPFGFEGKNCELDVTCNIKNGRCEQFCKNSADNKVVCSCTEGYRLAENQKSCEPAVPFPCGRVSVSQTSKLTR chain 2: VVGGEDAKPGQFPWQVVLNGKVNATCGGSIVNEKWIVTAAHCVETGVKITVVAGEHNIEETEHTEQKRNVIRIIPHHNYNAAINKYNHDIALLELDEPLVLNSYVTPICIADKEYTNIFLKFGSGYVSGWGRVFHKGRSALVLQYLRVPLVDRATCLESTKFTIYNNMFCAGFHEGGRDSCQGDSGGPHVTEVEGTSFLTGIISWGEECAMKGKYGIYTKVSEYVNWIKEKTKLT , please.
1.9e+07 M⁻¹ s⁻¹

Tell me the measured kcat/KM for FX activation (Xase assay with FVIIIa, PC/PS vesicles, Ca2+) of FIXa-K293A/R338A/R403A (protein) chain 1: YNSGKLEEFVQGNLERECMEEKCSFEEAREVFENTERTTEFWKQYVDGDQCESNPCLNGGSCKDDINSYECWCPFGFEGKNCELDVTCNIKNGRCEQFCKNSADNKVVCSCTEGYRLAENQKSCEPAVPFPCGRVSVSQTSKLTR chain 2: VVGGEDAKPGQFPWQVVLNGKVDAFCGGSIVNEKWIVTAAHCVETGVKITVVAGEHNIEETEHTEQKRNVIRIIPHHNYNAAINKYNHDIALLELDEPLVLNSYVTPICIADAEYTNIFLKFGSGYVSGWGRVFHKGRSALVLQYLRVPLVDRATCLASTKFTIYNNMFCAGFHEGGRDSCQGDSGGPHVTEVEGTSFLTGIISWGEECAMKGKYGIYTKVSAYVNWIKEKTKLT , please.
2.5e+07 M⁻¹ s⁻¹

Where these numbers come from: patent US20210230570
